Provenance of the data: patent US8399683B2

- TARGET OR SYSTEM: cIAP-1 BIR-3 (Homo sapiens, UniProt Q13490)
- Sequence (Q13490 266-352 limits assumed): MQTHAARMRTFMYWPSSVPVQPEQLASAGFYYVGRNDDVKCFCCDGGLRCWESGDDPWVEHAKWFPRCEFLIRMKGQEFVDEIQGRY
- METHOD SUMMARY: Fluorescence polarization binding affinity to cIAP-1 BIR-3 (competition with AbuRPF-K(5-Fam)-NH2)
- CONDITION LABEL: 5 nM labeled peptide, 40 nM BIR3, 15 min at RT, pH 7.5; reported as ranges; read-out: KD (c-IAP-1 BIR3)
ASSAY READOUT: Kd

Input: Recall and state the measured Kd for CN[C@@H](C)C(=O)N[C@H](C(=O)N1CC[C@@H]2[C@H]1[C@@H](c1c[nH]c3cc(F)ccc13)CN2C1CCCC1)[C@@H](C)OC .
Output: < 100 nM

Input: Recall and state the measured Kd for CN[C@@H](C)C(=O)N[C@H](C(=O)N1CC[C@H]2NC[C@@H](c3c[nH]c4ccccc34)[C@H]21)C1CCCCC1 .
Output: > 10000 nM

Input: Recall and state the measured Kd for CN[C@@H](C)C(=O)N[C@H](C(=O)N1CC[C@@H]2[C@H]1[C@@H](c1c[nH]c3cc(F)ccc13)CN2Cc1ccccc1)[C@@H](C)O .
Output: < 100 nM

###

- TARGET OR SYSTEM: cIAP-1 BIR-3 (Homo sapiens, UniProt Q13490)
- METHOD SUMMARY: Fluorescence polarization binding affinity to cIAP-1 BIR-3 (competition with AbuRPF-K(5-Fam)-NH2)
- CONDITION LABEL: 5 nM labeled peptide, 40 nM BIR3, 15 min at RT, pH 7.5; reported as ranges; read-out: KD (c-IAP-1 BIR3)
- Procedure: The binding affinities of the compounds are reported as a KD value (μM). […] Following incubation, the polarization values (mP) were measured on a Victor2V (available from PerkinElmer Life Sciences) using a 485 nm excitation filter and a 520 nm emission filter. […]
Please respond with reported Kd for every item in the list.

Input: Recall and state the measured Kd for CN[C@@H](C)C(=O)N[C@@H](CO)C(=O)N1CC[C@@H]2[C@H]1[C@@H](c1c[nH]c3cc(F)ccc13)CN2c1ncccn1 .
Output: < 100 nM

Input: Recall and state the measured Kd for CN[C@@H](C)C(=O)N[C@H](C(=O)N1CC[C@H]2NC[C@H](c3c[nH]c4cc(F)ccc34)[C@H]21)C(C)(C)C .
Output: < 100 nM

Input: Recall and state the measured Kd for CN[C@@H](C)C(=O)N[C@@H](CO)C(=O)N1CC[C@@H]2[C@H]1[C@@H](c1c[nH]c3ccc(F)cc13)CN2C(C)=O .
Output: < 100 nM

Input: Recall and state the measured Kd for CN[C@@H](C)C(=O)N[C@H](C(=O)N1CC[C@H]2NC[C@@H](c3c[nH]c4cc(F)ccc34)[C@H]21)C1CCCCC1 .
Output: 1000 to 10000 nM

Input: Recall and state the measured Kd for CN[C@@H](C)C(=O)N[C@H](C(=O)N1CC[C@@H]2[C@H]1[C@@H](c1c[nH]c3cc(F)ccc13)CN2c1ncccn1)[C@@H](C)OC .
Output: < 100 nM

Input: Recall and state the measured Kd for CN[C@@H](C)C(=O)N[C@@H](CO)C(=O)N1CC[C@@H]2[C@H]1[C@H](c1c[nH]c3cc(F)ccc13)CN2S(C)(=O)=O .
Output: 1000 to 10000 nM

Input: Recall and state the measured Kd for CN[C@@H](C)C(=O)N[C@H](C(=O)N1CC[C@@H]2[C@H]1[C@@H](c1c[nH]c3cc(F)ccc13)CN2Cc1ccccc1)C1CCCCC1 .
Output: < 100 nM

Input: Recall and state the measured Kd for CN[C@@H](C)C(=O)N[C@H](C(=O)N1CC[C@H]2NCC[C@H]21)C1CCCCC1 .
Output: 100 to 1000 nM

Input: Recall and state the measured Kd for CN[C@@H](C)C(=O)N[C@H](C(=O)N1CC[C@@H]2[C@H]1[C@@H](c1c[nH]c3cc(F)ccc13)CN2C1CCCC1)C(C)(C)C .
Output: < 100 nM

Input: Recall and state the measured Kd for CN[C@@H](C)C(=O)N[C@H](C(=O)N1CC[C@@H]2[C@H]1[C@@H](c1c[nH]c3ccccc13)CN2C(C)C)C1CCCCC1 .
Output: 100 to 1000 nM

Input: Recall and state the measured Kd for CN[C@@H](C)C(=O)N[C@H](C(=O)N1CC[C@@H]2[C@H]1[C@@H](c1c[nH]c3cc(F)ccc13)CN2C(=O)Cc1ccccc1)C1CCCCC1 .
Output: < 100 nM

Input: Recall and state the measured Kd for CN[C@@H](C)C(=O)N[C@H](C(=O)N1CC[C@@H]2[C@H]1[C@H](c1c[nH]c3cc(F)ccc13)CN2C(C)=O)C1CCCCC1 .
Output: 100 to 1000 nM

Input: Recall and state the measured Kd for CN[C@@H](C)C(=O)N[C@H](C(=O)N1CC[C@@H]2[C@H]1[C@@H](c1c[nH]c3cc(F)ccc13)CN2c1nccc(Cl)n1)C1CCCCC1 .
Output: < 100 nM

Input: Recall and state the measured Kd for CN[C@@H](C)C(=O)N[C@H](C(=O)N1CC[C@@H]2[C@H]1[C@@H](c1c[nH]c3cc(F)ccc13)CN2c1ncccn1)C1CCCCC1 .
Output: < 100 nM

Input: Recall and state the measured Kd for CN[C@@H](C)C(=O)N[C@H](C(=O)N1CC[C@@H]2[C@H]1[C@@H](c1c[nH]c3cc(F)ccc13)CN2Cc1ccccc1)C(C)C .
Output: < 100 nM

Input: Recall and state the measured Kd for CN[C@@H](C)C(=O)N[C@H](C(=O)N1CC[C@@H]2[C@H]1[C@H](c1c[nH]c3cc(F)ccc13)CN2S(C)(=O)=O)C(C)C .
Output: 100 to 1000 nM

Input: Recall and state the measured Kd for CN[C@@H](C)C(=O)N[C@H](C(=O)N1CC[C@H]2NC[C@H](c3c[nH]c4ccccc34)[C@H]21)C1CCCCC1 .
Output: < 100 nM

###

- TARGET OR SYSTEM: XIAP BIR-3 (Homo sapiens, UniProt P98170)
- Construct: 40 nM of the respective IAP BIR3
- Sequence (P98170 241-356 limits assumed): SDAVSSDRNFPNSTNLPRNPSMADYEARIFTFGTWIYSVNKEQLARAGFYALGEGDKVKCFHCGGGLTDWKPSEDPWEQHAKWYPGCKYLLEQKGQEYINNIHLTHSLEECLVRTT
- METHOD SUMMARY: Fluorescence polarization binding affinity to XIAP BIR-3 (competition with AbuRPF-K(5-Fam)-NH2)
- CONDITION LABEL: 5 nM labeled peptide, 40 nM BIR3, 15 min at RT, pH 7.5; reported as ranges
- Description: The binding affinities of the compounds are reported as a KD value (μM). […] Following incubation, the polarization values (mP) were measured on a Victor2V (available from PerkinElmer Life Sciences) using a 485 nm excitation filter and a 520 nm emission filter. […]
pKd: −log10 of the molar value.
Please respond with reported pKd for every item in the list.

Input: Recall and state the measured pKd for CN[C@@H](C)C(=O)N[C@H](C(=O)N1C[C@@H](O)[C@@H]2[C@H]1[C@@H](c1c[nH]c3cc(F)ccc13)CN2C(=O)OCc1ccccc1)C1CCCCC1 .
Output: > 7.00

Input: Recall and state the measured pKd for CN[C@@H](C)C(=O)N[C@H](C(=O)N1CC[C@@H]2[C@H]1[C@H](c1c[nH]c3cc(F)ccc13)CN2S(C)(=O)=O)C(C)C .
Output: 6.00 to 7.00

Input: Recall and state the measured pKd for CN[C@@H](C)C(=O)N[C@@H](COC)C(=O)N1CC[C@@H]2[C@H]1[C@@H](c1c[nH]c3cc(F)ccc13)CN2C(C)=O .
Output: 6.00 to 7.00

Input: Recall and state the measured pKd for CN[C@@H](C)C(=O)N[C@H](C(=O)N1CC[C@@H]2[C@H]1[C@@H](c1c[nH]c3cc(F)ccc13)CN2C)C1CCCCC1 .
Output: 6.00 to 7.00

Input: Recall and state the measured pKd for CN[C@@H](C)C(=O)N[C@@H](COC)C(=O)N1CC[C@@H]2[C@H]1[C@@H](c1c[nH]c3cc(F)ccc13)CN2c1ncccn1 .
Output: > 7.00

###

- Tested on: SK-OV-3 cells
- METHOD SUMMARY: Growth inhibition of ovarian cancer cell line SK-OV-3 (MTT assay, cell survival)
- Format: cell-based
- CONDITION LABEL: Homo sapiens, drug concentration that results in 50% cell survival, 72 hrs incubation, reported as ranges
ASSAY READOUT: CC50

Input: Recall and state the measured CC50 for CN[C@@H](C)C(=O)N[C@H](C(=O)N1CC[C@@H]2[C@H]1[C@@H](c1c[nH]c3ccc(F)cc13)CN2C(C)=O)[C@@H](C)OC .
Output: < 100 nM

Input: Recall and state the measured CC50 for CN[C@@H](C)C(=O)N[C@H](C(=O)N1CC[C@H]2NC[C@H](c3c[nH]c4cc(F)ccc34)[C@H]21)C1CCCCC1 .
Output: < 100 nM

Input: Recall and state the measured CC50 for CN[C@@H](C)C(=O)N[C@H](C(=O)N1CC[C@@H]2[C@H]1[C@@H](c1c[nH]c3cc(F)ccc13)CN2Cc1ccccc1)C(C)C .
Output: < 100 nM

Input: Recall and state the measured CC50 for CN[C@@H](C)C(=O)N[C@H](C(=O)N1CC[C@H]2NC[C@@H](c3c[nH]c4ccccc34)[C@H]21)C1CCCCC1 .
Output: 1000 to 10000 nM

Input: Recall and state the measured CC50 for CN[C@@H](C)C(=O)N[C@H](C(=O)N1CC[C@@H]2[C@H]1[C@@H](c1c[nH]c3cc(F)ccc13)CN2S(C)(=O)=O)C1CCCCC1 .
Output: < 100 nM

Input: Recall and state the measured CC50 for CN[C@@H](C)C(=O)N[C@H](C(=O)N1CC[C@@H]2[C@H]1[C@@H](c1c[nH]c3ccccc13)CN2C1CCCCC1)[C@@H](C)OC .
Output: 100 to 1000 nM

Input: Recall and state the measured CC50 for CN[C@@H](C)C(=O)N[C@H](C(=O)N1CC[C@@H]2[C@H]1[C@@H](c1c[nH]c3cc(F)ccc13)CN2Cc1ccccc1)[C@@H](C)O .
Output: 100 to 1000 nM

Input: Recall and state the measured CC50 for CN[C@@H](C)C(=O)N[C@H](C(=O)N1CC[C@@H]2[C@H]1[C@@H](c1c[nH]c3cc(F)ccc13)CN2C1CCCCC1)C1CCCCC1 .
Output: 100 to 1000 nM

Input: Recall and state the measured CC50 for CN[C@@H](C)C(=O)N[C@@H](COC)C(=O)N1CC[C@@H]2[C@H]1[C@@H](c1c[nH]c3cc(F)ccc13)CN2c1ncccn1 .
Output: < 100 nM

Input: Recall and state the measured CC50 for CN[C@@H](C)C(=O)N[C@H](C(=O)N1CC[C@@H]2[C@H]1CCN2C(=O)OCc1ccccc1)C1CCCCC1 .
Output: 100 to 1000 nM

Input: Recall and state the measured CC50 for CN[C@@H](C)C(=O)N[C@@H](COC)C(=O)N1CC[C@@H]2[C@H]1[C@@H](c1c[nH]c3ccc(F)cc13)CN2C(C)=O .
Output: 1000 to 10000 nM

Input: Recall and state the measured CC50 for CN[C@@H](C)C(=O)N[C@H](C(=O)N1CC[C@@H]2[C@H]1[C@@H](c1c[nH]c3cc(F)ccc13)CN2Cc1nccn1C)C1CCCCC1 .
Output: 1000 to 10000 nM

Input: Recall and state the measured CC50 for CN[C@@H](C)C(=O)N[C@H](C(=O)N1CC[C@H]2NC[C@H](c3c[nH]c4ccccc34)[C@H]21)[C@@H](C)OC .
Output: 1000 to 10000 nM
